Recorded Endpoint: melting point

- CCCN1CCC(Nc2ncc3cc(Cc4ccc(C)cc4)c(=O)n(C4CCCC4)c3n2)CC1: 154 to 155 °C
- Cc1ccccc1Cc1cc2cnc(NCCCN3CCN(C)CC3)nc2n(C2CCCC2)c1=O: > 45 °C
- CC(C)c1ccc(Cc2cc3cnc(NC4CCC(N(C)C)CC4)nc3n(C3CCCC3)c2=O)cc1 (stereo not drawn): 174 to 181 °C
- CN1CCN(S(=O)(=O)N2CCC(Nc3ncc4cc(Cc5ccccc5)c(=O)n(C5CCCC5)c4n3)CC2)CC1: 182 to 183 °C
- Cc1cccc(Cc2cc3cnc(Nc4ccc(N5CCNCC5)cc4)nc3n(C3CCCC3)c2=O)c1: 200 to 203 °C

Field melting point (entry CCCN1CCC(Nc2ncc3cc(Cc4ccc(C(C)C)cc4)c(=O)n(C4CCCC4)c3n2)CC1 ) reads 156 to 160 °C

Field melting point (entry CN(C)C1CCC(Nc2ncc3cc(Cc4ccccc4)c(=O)n(C4CCCC4)c3n2)CC1 (stereo not drawn) ) reads 167 to 170 °C

Field melting point (entry CN(C)C1CCC(Nc2ncc3cc(Cc4nccs4)c(=O)n(C4CCCC4)c3n2)CC1 (stereo not drawn) ) reads 154 to 157 °C

Field melting point (entry CN(CCO)c1ncc2cc(Cc3ccccc3)c(=O)n(C3CCCC3)c2n1 ) reads < 60 °C

Field melting point (entry O=c1c(Cc2ccccc2)cc2cnc(NCCO)nc2n1C1CCCC1 ) reads 177 to 179 °C

Field melting point (entry CCCN1CCC(Nc2ncc3cc(Cc4ccc(CC)cc4)c(=O)n(C4CCCC4)c3n2)CC1 ) reads 151 to 153 °C

Field melting point (entry CCCN1CCC(Nc2ncc3cc(Cc4ccccn4)c(=O)n(C4CCCC4)c3n2)CC1 ) reads 133 to 134 °C

Field melting point (entry CS(=O)(=O)N1CCC(Nc2ncc3cc(Cc4ccccc4)c(=O)n(C4CCCC4)c3n2)CC1 ) reads 243 to 245 °C

Field melting point (entry Cc1ccc(Cc2cc3cnc(NCCCN4CCN(C)CC4)nc3n(C3CCCC3)c2=O)cc1 ) reads 123 to 124 °C

Field melting point (entry CC(C)S(=O)(=O)N1CCC(Nc2ncc3cc(Cc4ccccc4)c(=O)n(C4CCCC4)c3n2)CC1 ) reads 210 to 212 °C

Field melting point (entry CN(C)c1ncc2cc(Cc3ccccc3)c(=O)n(C3CCCC3)c2n1 ) reads 115 to 117 °C

====

Structures can show the parent of a compound that is named as a salt.
Recorded Endpoint: melting point

- O=c1c(Cc2ccccc2)cc2cnc(NCCCn3ccnc3)nc2n1C1CCCC1: 142 to 144 °C
- O=c1c(Cc2ccccn2)cc2cnc(NC3CCNCC3)nc2n1C1CCCC1 (as salt: TFA): 138 to 140 °C
- CCc1ccc(Cc2cc3cnc(Nc4ccc(N5CCNCC5)cc4)nc3n(C3CCCC3)c2=O)cc1: 175 °C
- O=C(O)CCNc1ncc2cc(Cc3ccccc3)c(=O)n(C3CCCC3)c2n1: 164 to 170 °C
- O=c1c(Cc2ccccc2)cc2cnc(Nc3ccccc3)nc2n1C1CCCC1: 161 to 163 °C

Field melting point (entry CS(=O)(=O)N1CCC(Nc2ncc3cc(Cc4ccccn4)c(=O)n(C4CCCC4)c3n2)CC1 ) reads 220 to 223 °C

Field melting point (entry O=c1c(Cc2ccccc2)cc2cnc(NC3CCNCC3)nc2n1C1CCCC1 ) reads 75 °C
